system: Plasmodium falciparum; test: GSK_TCMDC: Inhibition of Plasmodium falciparum Dd2 in whole red blood cells, using parasite LDH activity as an index of growth. Test compounds present at 2uM; type: functional
Each record here notes measured Inhibition.
Report only the number, with the unit % understood.

# compound, Inhibition, %
measured = [
    ("Br.CC1(C)NC(N)=NC(=N)N1OCCc1cccc2ccccc12", 97),
    ("COc1ccccc1-c1sccc1C(=O)NC1(c2cc(Cl)cc(Cl)c2)CCCC1", 95),
    ("CC(C)N1CCCN(C(=O)C2CCN(c3ccc(C(=O)N4CCCC4)cn3)CC2)CC1.Cl", 12),
    ("COc1ccc(C(=O)NC2CCN(c3ccnc4cc(Cl)ccc34)C2)cc1.O=C(O)C(F)(F)F (stereo not drawn)", 100),
    ("CCOC(=O)c1[nH]c2ccc(F)cc2c1NC(=O)CN1CCN(c2cccc(C(F)(F)F)c2)CC1", 90),
]

**Q:** Recorded Inhibition for Cl.N#Cc1ccc2c(c1)CCN(CCC1CCC(NC(=O)c3cc4cccc([N+](=O)[O-])c4[nH]3)CC1)C2 (stereo not drawn) , please?
**A:** 28

**Q:** Quick one: Inhibition for NCCCCNc1cc(-c2ccnc(Nc3cccc(Cl)c3)n2)ccn1 ?
**A:** 91

**Q:** Returns the measured Inhibition for the input compound. Input: Cc1cccc2nc(-c3cccc(-c4cccc(NC(=O)Nc5ccsc5)c4)c3)[nH]c12
**A:** 41

**Q:** For the compound CO/C(=C\C=C\c1cc2cc(Cl)c(Cl)cc2[nH]1)C(=O)NCCCN1CCCC[C@H]1C , what Inhibition is on record?
**A:** 91

**Q:** Using the record for Cn1cncc1CCN(Cc1ccc(-c2ccc(C(F)(F)F)cc2)cc1)C(=O)Cn1c(CCc2cccc(F)c2F)cc(=O)c2cccnc21 , report its Inhibition.
**A:** 97

###

Below: a set of entries, each annotated with reported Inhibition.
test system: Plasmodium falciparum; assay: GSK_TCMDC: Inhibition of Plasmodium falciparum Dd2 in whole red blood cells, using parasite LDH activity as an index of growth. Test compounds present at 2uM; assay type: functional

Solved entries (count: 3):
# substance smiles, Inhibition
data = [
    ("C=CCOC(=O)O[C@@H]1[C@@H](OC(=O)OCC=C)[C@@H](OC)O[C@H](COC(c2ccccc2)(c2ccccc2)c2ccccc2)[C@H]1OC(=O)OCC=C", "96%"),
    ("N#CCCN1CCN(Cc2ccc(-c3ccc(-c4nc5cc(F)ccc5[nH]4)s3)cc2)CC1.O=C(O)C(F)(F)F", "38%"),
    ("CCOc1cc(NCCCNc2ncc([N+](=O)[O-])cc2C)nc2ccccc12", "64%"),
]

Please turn your attention to the following entry.
**Q:** Recorded Inhibition for COc1ccc(-c2ccc(NC(=O)c3cccc(Cl)c3)cc2)cc1CN1CCN(C)CC1.O=C(O)C(F)(F)F , please?
**A:** 33%

###

tested on: HepG2; experiment: GSK_TCMDC: Percent inhibition of human HepG2 cell line. Test compounds present at 10uM.; format: functional
Outcome: met for Inhibition of at least 20%; not met for anything lower.

Please review the entries below; each comes with its answer.
# compound, answer label
measured = [
    ("Cc1cccc(C(=O)Nc2ccnc(N3CCCN(Cc4cccc(O)c4)CC3)c2)c1.O=C(O)C(F)(F)F", "not met"),
    ("CCc1c[nH]c2c(N3CCCC3=O)cc(C(=O)N[C@@H](Cc3ccccc3)[C@H](O)CNC(C)(C)c3cccc(C(F)(F)F)c3)cc12.O=CO", "not met"),
    ("COc1ccc(-c2ncnc(C(F)(F)F)c2-c2ccc(Cl)cc2)c(O)c1", "not met"),
]

Next, consider the following compound.
**Q:** Is Inhibition for Cc1cc(Nc2ccc(Cl)c(Cl)c2)n2nc(C)nc2n1 at or above 20%?
**A:** not met
